Kindly supply the reported IC50 values for the records listed here.
- SYSTEM TESTED: gamma secretase (Homo sapiens, UniProt P49768)
- Construct: HEK293 cells stably expressing full length Amyloid Precursor Protein (APP); endogenous in cells
- PROTOCOL: GSM cell-based assay: Aβ 42 inhibition or reduction in HEK 293 cells over-expressing APP (sandwich ELISA)
- DETAILS: approximate IC50; HEK293 cells stably expressing full length APP, 24 hours incubation, 10-point dose response starting at 10 μM
Answers are plain numbers, in nM.

Examples from the recorded data:
{"COMPOUND": "Cc1cc(-c2ccc(NC(=O)C3CC3(C)C)cc2)ccn1 (stereo not drawn)", "QUANTITY KIND": "IC50", "ENDPOINT UNIT": "nM", "ASSAY VALUE": 1090}
{"COMPOUND": "Cc1cc(-c2ccc(NC(=O)C(C)c3cccc(C4CC4)c3)cc2)ccn1 (stereo not drawn)", "QUANTITY KIND": "IC50", "ENDPOINT UNIT": "nM", "ASSAY VALUE": 1200}
{"COMPOUND": "Cc1cc(-c2ccc(NC(=O)C(C)c3ccc(N(CC4CC4)CC4CC4)cc3)cc2)ccn1 (stereo not drawn)", "QUANTITY KIND": "IC50", "ENDPOINT UNIT": "nM", "ASSAY VALUE": 540}
{"COMPOUND": "Cc1cc(-c2ccc(NC(=O)Cc3cncc(Br)c3)cc2)ccn1", "QUANTITY KIND": "IC50", "ENDPOINT UNIT": "nM", "ASSAY VALUE": 2450}
{"COMPOUND": "COCCNc1cccc(C(C)C(=O)Nc2ccc(-c3ccnc(C)c3)cc2)c1 (stereo not drawn)", "QUANTITY KIND": "IC50", "ENDPOINT UNIT": "nM", "ASSAY VALUE": 2840}

For every record below, what is its IC50?
1. Cc1cc(-c2ccc(NC(=O)C(CC3CCC3)c3cccc(Br)c3)cc2)ccn1 (stereo not drawn)
2. Cc1cc(-c2ccc(NC(=O)Cc3n[nH]c4ccc(Br)cc34)cc2)ccn1

[282, 1180]

Reference source for all entries: patent US20110166132A1
